Reference source for all entries: patent US8426441B2

Measured melting point of individual entries

Example results:
1) Cc1c(NC(=O)c2ccc(N(C)C)cc2)cccc1-c1cc(NC(=O)NCCCN2CCN(C)CC2)c2nccn2c1: 144 to 145 °C
2) Cc1c(NC(=O)c2ccc(C(C)(C)C)cc2)cccc1-c1cc(NC(=O)NC(C)(C)C)c2nccn2n1: 191 to 193 °C
3) Cc1c(NC(=O)c2ccc(C(C)(C)C)cc2)cccc1-c1cc(NC(=O)NC(C)C)c2nccn2n1: 178 to 180 °C
4) Cc1c(NC(=O)c2ccc(C(C)(C)C)cc2)cccc1-c1cc(NC(=O)NCCCN2CCN(C)CC2)c2nccn2c1: 167 to 168 °C
5) CNC(=O)Nc1cc(-c2cccc(NC(=O)c3ccc(C(C)(C)C)cc3)c2C)nn2ccnc12: 163 to 165 °C
6) CNC(=O)Nc1cc(-c2cccc(NC(=O)c3ccc(OC(F)(F)F)cc3)c2C)cn2ccnc12: 148.4 to 153.2 °C

Data request: Please give the documented melting point of Cc1c(NC(=O)c2ccc(C(C)(C)C)cc2)cccc1-c1cc(Nc2nccs2)c2nccn2n1
Data returned: 178 to 179 °C

###

assay_metric: melting point

Example results:
1. CNC(=O)Nc1cc(-c2ccccc2)nn2ccnc12: 192 to 193 °C
2. CNC(=O)Nc1cc(-c2cccc(NC(=O)c3ccc(OC(C)C)cc3)c2C)cn2ccnc12: 147.1 to 151.7 °C
3. CC(=O)Nc1cc(-c2cccc(NC(=O)c3ccc(C(C)(C)C)cc3)c2C)cn2ccnc12: 132 to 133 °C
4. CNC(=O)Nc1cc(-c2cccc(NC(=O)c3ccc(C(C)(C)C)cc3)c2C)cn2ccnc12: 148 to 149 °C
5. CCOC(=O)c1ccc(Nc2cc(-c3ccccc3)cn3ccnc23)nc1: 141.5 to 142.5 °C

Data request: Please give the documented melting point of Cc1c(NC(=O)c2ccc(N(C)C)cc2)cccc1-c1cc(NC(=O)NCCO)c2nccn2c1
Data returned: 153.7 to 164.4 °C

Data request: Please give the documented melting point of Cc1c(NC(=O)c2ccc(C(C)(C)C)cc2)cccc1-c1cc(NC(=O)NCCO)c2nccn2n1
Data returned: 183 to 184 °C

Data request: Please give the documented melting point of CNC(=O)Nc1cc(-c2cccc(CC(=O)N3Cc4ccccc4C3)c2)nn2ccnc12
Data returned: 244 to 245 °C

###

Measured melting point of individual entries

1. CNC(=O)Nc1cc(-c2ccccc2)cn2ccnc12: 69 to 70 °C
2. CNC(=O)Nc1cc(-c2cccc(NC(=O)N3CC(OC(C)(C)C)C3)c2C)cn2ccnc12: 158 to 161 °C
3. CNC(=O)Nc1cc(-c2cccc(NC(=O)c3ccc([Si](C)(C)C)cc3)c2C)cn2ccnc12: 143.5 to 154.4 °C
4. Cc1c(NC(=O)c2ccc(C(C)(C)C)cc2)cccc1-c1cc(NC(=O)NCCCN(C)C)c2nccn2c1: 182.7 to 199.7 °C
5. Cc1c(NC(=O)c2ccc(C(C)(C)C)cc2)cccc1-c1cc(NC(N)=O)c2nccn2c1: 185.4 to 215 °C

Data request: Please give the documented melting point of O=C(Cc1cccc(-c2cc(Nc3ccc(C(=O)N4CCOCC4)cn3)c3nccn3c2)c1)N1CC(OC(C(F)(F)F)C(F)(F)F)C1
Data returned: 137 to 138 °C

Data request: Please give the documented melting point of Cc1c(NC(=O)c2ccc(N(C)C)cc2)cccc1-c1cc(NC(=O)NCCCN2CCOCC2)c2nccn2c1
Data returned: 190.2 to 209.7 °C

Data request: Please give the documented melting point of CCNC(=O)Nc1cc(-c2cccc(NC(=O)c3ccc(C(C)(C)C)cc3)c2C)nn2ccnc12
Data returned: 181 to 183 °C

###

target: UniProt Q06187
Sequence (Q06187 whole entry): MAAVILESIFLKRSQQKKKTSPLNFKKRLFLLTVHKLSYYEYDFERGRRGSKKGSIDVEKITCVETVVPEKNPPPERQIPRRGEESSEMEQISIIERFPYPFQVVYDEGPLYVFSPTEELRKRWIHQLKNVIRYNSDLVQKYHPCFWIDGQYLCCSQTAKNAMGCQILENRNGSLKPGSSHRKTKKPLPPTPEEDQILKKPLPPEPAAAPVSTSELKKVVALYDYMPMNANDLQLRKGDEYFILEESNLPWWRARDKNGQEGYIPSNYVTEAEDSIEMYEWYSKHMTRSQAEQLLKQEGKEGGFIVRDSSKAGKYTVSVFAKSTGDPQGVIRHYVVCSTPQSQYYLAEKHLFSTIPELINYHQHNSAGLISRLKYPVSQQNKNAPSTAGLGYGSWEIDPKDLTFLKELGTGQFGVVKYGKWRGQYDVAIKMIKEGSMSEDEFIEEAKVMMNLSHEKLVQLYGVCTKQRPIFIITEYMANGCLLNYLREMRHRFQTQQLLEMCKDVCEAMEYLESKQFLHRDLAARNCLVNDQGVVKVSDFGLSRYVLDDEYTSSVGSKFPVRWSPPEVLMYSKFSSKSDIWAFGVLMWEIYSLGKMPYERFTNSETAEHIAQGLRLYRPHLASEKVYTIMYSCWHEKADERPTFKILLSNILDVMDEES
assay_metric: IC50 (nM)
Number only, in nM; omit the unit.

1) CNC(=O)Nc1cc(-c2cccc(NC(=O)c3ccc(C(C)(C)C)cc3)c2C)cn2ccnc12 [Example I-56]: 24
2) CCNC(=O)Nc1cc(-c2cccc(NC(=O)c3ccc(C(C)(C)C)cc3)c2C)cn2ccnc12 [Example I-53]: 13

Data request: // fetch IC50; item: Cn1ccc(Nc2cc(-c3cccc(NC(=O)c4ccc(C5CC5)cc4)c3CO)nn3ccnc23)n1 [Example I-45] ; system: UniProt Q06187
Data returned: 15

###

Measured melting point of individual entries

Example results:
1) CNC(=O)Nc1cc(-c2cccc(NC(=O)c3ccc(OC)cc3)c2C)cn2ccnc12: 147.6 to 152.9 °C
2) CC(O)(C#CCNC(=O)Cc1cccc(-c2cc(Nc3ccc(C(=O)N4CCOCC4)cn3)c3nccn3c2)c1)C(F)(F)F (stereo not drawn): 136.8 to 147.5 °C
3) Cc1c(NC(=O)c2ccc(N(C)C)cc2)cccc1-c1cc(NC(=O)NCCCO)c2nccn2c1: 144.1 to 188.6 °C
4) Cc1c(NC(=O)N2CC(OC(C)(C)C)C2)cccc1-c1cc(NC(=O)NCCCN(C)C)c2nccn2c1: 129 to 130 °C
5) CNC(=O)Nc1cc(-c2cccc(CC(=O)NCC#CC(C)(C)C)c2)cn2ccnc12: 129 to 130 °C
6) C1=C(c2cc(Nc3ccccn3)c3nccn3n2)CCCC1: 160.7 to 161.5 °C
7) CCC(=O)Nc1cc(-c2cccc(NC(=O)c3ccc(C(C)(C)C)cc3)c2C)cn2ccnc12: 99 to 100 °C
8) Cc1c(NC(=O)c2ccc(C(O)(C(F)(F)F)C(F)(F)F)cc2)cccc1-c1cc(NC(=O)NCCCN(C)C)c2nccn2c1: 198 to 200 °C

Data request: Please give the documented melting point of Cc1c(NC(=O)c2ccc(C(C)(C)C)cc2)cccc1-c1cc(NC(=O)NCCO)c2nccn2c1
Data returned: 176 to 177 °C
